All figures here come from patent US4962109A.

Answer each item with its documented mortality at 500 ppm.
# System: Musca domestica (houseflies - adults)
# TEST: Contact test on houseflies - adults (MD), Cotton wool/sugar, mortality
# Format: in vivo
# EXPERIMENTAL_PARAMETERS: 72 h, 500 ppm, contact, 3 days, read-out: MD grading of mortality

Any idea what mortality at 500 ppm was measured for CC(C)OCc1c(F)c(F)c(COC(=O)C(c2cnc(C(C)(C)C)nc2)C(C)(C)C)c(F)c1F (racemic) ?
< 50%

Try C[C@@H](OC(=O)[C@@H](c1cnc(C2(C)CC2)nc1)C(C)(C)C)c1cccc(Oc2ccccc2)n1 (racemic) next.
80 to 100%

Try CC(C)(C)c1ncc(C(C(=O)OCc2ccc(F)c(Oc3ccccc3)c2)C(C)(C)C)cn1 (racemic) next.
< 50%

Try COCc1c(F)c(F)c(COC(=O)C(c2cnc(-c3ccccc3Cl)nc2)C(C)(C)C)c(F)c1F (racemic) next.
< 50%

Try CC(C)(C)c1ncc(C(C(=O)OCc2cccc(Oc3ccccc3)n2)C(C)(C)C)cn1 (racemic) next.
80 to 100%

Try COCc1c(F)c(F)c(COC(=O)C(c2cnc(C(C)C)nc2)C(C)(C)C)c(F)c1F (racemic) next.
< 50%

Try CC(C)c1ncc(C(C(=O)OCc2ccc(F)c(Oc3ccccc3)c2)C(C)(C)C)cn1 (racemic) next.
< 50%

Try CSCc1c(F)c(F)c(COC(=O)C(c2cnc(C(C)(C)C)nc2)C(C)(C)C)c(F)c1F (racemic) next.
80 to 100%

Try CC(C)(C)c1ncc(C(C(=O)OCc2c(F)cccc2Cl)C(C)(C)C)cn1 (racemic) next.
80 to 100%

Try CC(C)=NOCc1c(F)c(F)c(COC(=O)C(c2cnc(C(C)(C)C)nc2)C(C)(C)C)c(F)c1F (racemic) next.
< 50%

Try CC(C)(C)c1ncc(C(C(=O)OCc2c(F)c(F)c(CCl)c(F)c2F)C(C)(C)C)cn1 (racemic) next.
< 50%

Try CCOCc1c(F)c(F)c(COC(=O)C(c2cnc(C(C)(C)C)nc2)C(C)(C)C)c(OCC)c1F (racemic) next.
< 50%

Try CCC(C)(C)c1ncc(C(C(=O)OCc2ccc(F)c(Oc3ccccc3)c2)C(C)(C)C)cn1 (racemic) next.
< 50%

Try C=CC(C)(C)C(C(=O)OCc1c(F)c(F)c(COC)c(F)c1F)c1cnc(C(C)(C)C)nc1 (racemic) next.
< 50%
